Form: system (Prostaglandin G/H synthase 2 (Homo sapiens, UniProt P35354)), quantity (IC50), values below.
Field format: number, assumed µM, no unit text.

| Smiles text | IC50 [µM] |
| --- | --- |
| Cn1cccc1CNc1cc(C(F)(F)F)nc(-c2ccc(S(C)(=O)=O)cc2)n1 | 0.178 |

Query block: Request - read-out IC50 | tested on Prostaglandin G/H synthase 2 (Homo sapiens, UniProt P35354) | molecule CS(=O)(=O)c1ccc(-c2nc(NCc3cc4ccccc4s3)cc(C(F)(F)F)n2)cc1
Result block: 0.00592

Query block: Please tell me: IC50 of NS(=O)(=O)c1ccc(-c2nc(NCc3csc4ccccc34)cc(C(F)(F)F)n2)cc1 , system Prostaglandin G/H synthase 2 (Homo sapiens, UniProt P35354)?
Result block: 10

---

- Tested on: Prostaglandin G/H synthase 2 (Homo sapiens, UniProt P35354)
- Sequence (P35354 whole entry): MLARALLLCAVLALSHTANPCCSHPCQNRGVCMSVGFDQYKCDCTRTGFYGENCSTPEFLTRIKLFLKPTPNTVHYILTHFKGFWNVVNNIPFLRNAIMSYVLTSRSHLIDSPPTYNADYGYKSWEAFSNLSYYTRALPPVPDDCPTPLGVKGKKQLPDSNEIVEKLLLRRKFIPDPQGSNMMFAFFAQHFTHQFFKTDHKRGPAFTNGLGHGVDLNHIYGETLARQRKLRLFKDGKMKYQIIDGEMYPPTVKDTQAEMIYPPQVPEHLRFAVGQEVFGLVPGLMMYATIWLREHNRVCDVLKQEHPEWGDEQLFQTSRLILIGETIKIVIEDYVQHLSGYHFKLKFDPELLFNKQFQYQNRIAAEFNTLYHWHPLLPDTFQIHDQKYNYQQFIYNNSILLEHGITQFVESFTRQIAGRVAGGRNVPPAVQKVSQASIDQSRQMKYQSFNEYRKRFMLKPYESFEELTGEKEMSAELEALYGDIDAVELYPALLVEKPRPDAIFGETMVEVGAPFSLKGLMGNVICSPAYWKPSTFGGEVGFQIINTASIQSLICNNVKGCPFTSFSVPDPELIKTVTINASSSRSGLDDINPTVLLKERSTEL
Endpoint name: IC50

Completed entries (count: 2):
| Smiles text | Measurement |
| --- | --- |
| CC(C)c1ccc(Nc2cc(C(F)(F)F)nc(-c3ccc(S(C)(=O)=O)cc3)n2)cc1 | > 10 µM |
| COCOc1ccc(CNc2cc(C(F)(F)F)nc(-c3ccc(S(C)(=O)=O)cc3)n2)cc1 | > 10 µM |

Next up:
Query block: Query the reported IC50 for Prostaglandin G/H synthase 2 (Homo sapiens, UniProt P35354); item: NS(=O)(=O)c1ccc(-c2nc(NCc3ccccn3)cc(C(F)(F)F)n2)cc1
Result block: > 10 µM

---

Measured Ratio IC50, listed per entry for reference.
- Species: Homo sapiens
- Method: Ratio of IC50 for human COX1 to IC50 for human COX2 in human whole blood
- Format: tissue-based

| Compound | Measurement |
| --- | --- |
| CS(=O)(=O)c1ccc(-c2nc(C(F)(F)F)cc(S(=O)(=O)Cc3ccccc3)n2)cc1 | > 1 |
| CS(=O)(=O)c1ccc(-c2nc([S+]([O-])Cc3ccccc3)cc(C(F)(F)F)n2)cc1 (stereo not drawn) | > 1 |
| CC(C)c1cc(NCc2ccccc2)nc(-c2ccc(S(C)(=O)=O)cc2)n1 | > 396 |

We next turn to a different compound, shown below.
Query block: Query: Ratio IC50; subject: Cc1ccsc1CNc1cc(C(F)(F)F)nc(-c2ccc(S(C)(=O)=O)cc2)n1
Result block: 189

---

// Prostaglandin G/H synthase 2 (Homo sapiens, UniProt P35354) IC50 records
# output: number + unit

Solved entries:
| Compound | Measurement |
| --- | --- |
| NS(=O)(=O)c1ccc(-c2nc(NCc3ccncc3)cc(C(F)(F)F)n2)cc1 | 3330 nM |
| COc1cc(NCc2ccccc2)nc(-c2ccc(S(C)(=O)=O)cc2)n1 | 5.1 nM |

Query block: Provide the documented IC50 with Prostaglandin G/H synthase 2 (Homo sapiens, UniProt P35354) as the system for Cc1ccc(CNc2cc(C(F)(F)F)nc(-c3ccc(S(C)(=O)=O)cc3)n2)cc1
Result block: 48.4 nM

Query block: Given the entry CC(Nc1cc(C(F)(F)F)nc(-c2ccc(S(C)(=O)=O)cc2)n1)c1ccccc1 (centres undefined) , what IC50 was observed with Prostaglandin G/H synthase 2 (Homo sapiens, UniProt P35354)?
Result block: 522 nM

---

- Organism: Homo sapiens
- Method: Ratio of IC50 for human COX1 to IC50 for human COX2 in human whole blood
- Type: tissue-based
Documented Ratio IC50 across a set of molecules

Here are 2 molecules together with their reported answers.
| Smiles text | Ratio IC50 |
| --- | --- |
| Cc1c(Cl)nc(-c2ccc(S(C)(=O)=O)cc2)nc1NCc1ccc(F)cc1 | > 145 |
| NS(=O)(=O)c1ccc(-c2nc(NCc3ccco3)cc(C(F)(F)F)n2)cc1 | > 3 |

Query block: Give the measured Ratio IC50 of CS(=O)(=O)c1ccc(-c2nc(NCc3ccco3)cc(C(F)(F)F)n2)cc1 .
Result block: > 497

Query block: Would you kindly share the measured Ratio IC50 for CCS(=O)(=O)c1cc(NCc2cccs2)nc(-c2ccc(S(C)(=O)=O)cc2)n1 ?
Result block: 15

Query block: Any idea what Ratio IC50 was measured for CS(=O)(=O)c1ccc(-c2nc(NCCc3cccs3)cc(C(F)(F)F)n2)cc1 ?
Result block: > 83
